Assay read-out pKi; system under study: UniProt P35372.
Sequence (P35372 whole entry): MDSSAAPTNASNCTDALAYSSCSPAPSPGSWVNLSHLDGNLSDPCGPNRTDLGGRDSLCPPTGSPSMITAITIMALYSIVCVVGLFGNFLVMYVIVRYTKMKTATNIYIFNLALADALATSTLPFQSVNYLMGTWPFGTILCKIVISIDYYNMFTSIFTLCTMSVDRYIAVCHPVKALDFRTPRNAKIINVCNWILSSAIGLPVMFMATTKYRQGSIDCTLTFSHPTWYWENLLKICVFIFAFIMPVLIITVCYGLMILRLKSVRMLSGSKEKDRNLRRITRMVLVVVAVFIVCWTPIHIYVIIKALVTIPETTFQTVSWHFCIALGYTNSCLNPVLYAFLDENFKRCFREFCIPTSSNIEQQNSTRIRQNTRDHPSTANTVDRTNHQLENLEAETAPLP
Hey, just a heads up that pKi is the negative log base 10 of the concentration in molar.

SMILES DATA	VALUE REPORTED
C=C(C(=O)O)[C@@H](NC(=O)[C@H](Cc1c[nH]c2ccccc12)NC(=O)[C@@H]1CCCN1C(=O)[C@@H](N)Cc1c(C)cc(O)cc1C)c1ccco1	10.39

Challenge: Can you look up the measured pKi of C=C(C(N)=O)[C@@H](NC(=O)[C@H](Cc1c[nH]c2ccccc12)NC(=O)[C@H]1CCN(C(=O)[C@@H](N)Cc2ccc(O)cc2)C1)c1ccco1 for me?
Response given: 9.12

Challenge: Can you look up the measured pKi of C=C(C(N)=O)[C@@H](NC(=O)[C@H](Cc1c[nH]c2ccccc12)NC(=O)[C@H]1CCN(C(=O)[C@@H](N)Cc2ccc(O)cc2)C1)c1ccccc1 for me?
Response given: 9.24

Challenge: Can you look up the measured pKi of C=C(C(N)=O)[C@@H](NC(=O)[C@H](Cc1c[nH]c2ccccc12)NC(=O)[C@@H]1CCN(C(=O)[C@@H](N)Cc2c(C)cc(O)cc2C)C1)c1ccccc1 for me?
Response given: 11.01

Challenge: Can you look up the measured pKi of C=C(C(N)=O)[C@@H](NC(=O)[C@H](Cc1c[nH]c2ccccc12)NC(=O)[C@H]1CCN(C(=O)[C@@H](N)Cc2c(C)cc(O)cc2C)C1)c1ccccc1 for me?
Response given: 10.86

Challenge: Can you look up the measured pKi of C=C(C(=O)O)[C@@H](NC(=O)[C@H](Cc1c[nH]c2ccccc12)NC(=O)[C@@H]1CCCN1C(=O)[C@@H](N)Cc1c(C)cc(O)cc1C)c1ccccc1 for me?
Response given: 10.49

---

As shown below, each of these molecules has a reported Ratio Ki value.
# TEST DETAILS: Selectivity ratio of Ki for kappa-type opioid receptor (unknown origin) to Ki for FLAG-tagged mu-type opioid receptor (unknown origin)
# REPORTED CONDITIONS: Homo sapiens
Please give only the number in your answer, with no unit.

SMILES DATA	Ratio Ki
C=C(C(=O)O)[C@@H](NC(=O)[C@H](Cc1c[nH]c2ccccc12)NC(=O)[C@@H]1CCCN1C(=O)[C@@H](N)Cc1c(C)cc(O)cc1C)c1ccco1	4940

Challenge: Can you look up the measured Ratio Ki of C=C(C(N)=O)[C@@H](NC(=O)[C@H](Cc1c[nH]c2ccccc12)NC(=O)[C@@H]1CCN(C(=O)[C@@H](N)Cc2c(C)cc(O)cc2C)C1)c1ccco1 for me?
Response given: 55100

Challenge: Can you look up the measured Ratio Ki of C=C(C(N)=O)[C@@H](NC(=O)[C@H](Cc1c[nH]c2ccccc12)NC(=O)[C@H]1CCN(C(=O)[C@@H](N)Cc2c(C)cc(O)cc2C)C1)c1ccco1 for me?
Response given: 14100

Challenge: Can you look up the measured Ratio Ki of C=C(C(N)=O)[C@@H](NC(=O)[C@H](Cc1c[nH]c2ccccc12)NC(=O)[C@H]1CCN(C(=O)[C@@H](N)Cc2c(C)cc(O)cc2C)C1)c1ccccc1 for me?
Response given: 17500

Challenge: Can you look up the measured Ratio Ki of C=C(C(=O)O)[C@@H](NC(=O)[C@H](Cc1c[nH]c2ccccc12)NC(=O)[C@@H]1CCCN1C(=O)[C@@H](N)Cc1c(C)cc(O)cc1C)c1ccccc1 for me?
Response given: 5960

Challenge: Can you look up the measured Ratio Ki of C=C(C(N)=O)[C@@H](NC(=O)[C@H](Cc1c[nH]c2ccccc12)NC(=O)[C@@H]1CCN(C(=O)[C@@H](N)Cc2c(C)cc(O)cc2C)C1)c1ccccc1 for me?
Response given: 17600
